Assay: Components of the Cytosolic LPS Sensing Pathway: Gene Identification via Genome-wide siRNA Screen;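 further: robust z of the log signal after scaling to non-targeting control siRNA wells of the plate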
Conditions: RAW264.7 macrophages, IL-1a HTRF, actives lie on both sides, screened at 100 nM (by protocol), cells primed 5 h with Pam3CSK4 first
Hit rate of the full screen: of about 53,000 sequences, about 3,700 (7%) were called active. The entries come from a sample that favours actives as a whole.
Listing: z-score of selected sequences

- biosequence: "GGCUGUGGAAUGACACCAATT against Sars2"
  z-score: -1.01
- biosequence: "GCCUCCAUUAUUUGUUCUGTT against Olfr1058"
  z-score: -0.177
- biosequence: "GGGAAAAAAAAAAAUCACCTT against Syne3"
  z-score: -0.254
- biosequence: "CGAUGCUGAUGUAUCAAAGTT against Phkb"
  z-score: 1.48
- biosequence: "GGCACAACAUCAUCUGUCUTT against Psmd9"
  z-score: -2.05
- biosequence: "CCUGCUCAGGACGACUUUUTT against Defa20"
  z-score: -1.63
- biosequence: "GGAGUUCUUGGUCUCUUUGTT against Fam214a"
  z-score: -0.124
- biosequence: "GGCAAGCACACAAUGAUGCTT against Plin5"
  z-score: -0.0222
- biosequence: "GCGUGAUUGACAACUGGUUTT against Cphx1"
  z-score: 0.236
- biosequence: "CCAGUAAAAAUUGAAGGCUTT against Capza2"
  z-score: 0.565
- biosequence: "CCAGCUUCCUCGUAAGUGATT against Hsf4"
  z-score: -1.71
- biosequence: "GCAAAACUUGGAACGAUUUTT against Ddx1"
  z-score: 0.153

---

Assay: Components of the Cytosolic LPS Sensing Pathway: Gene Identification via Genome-wide siRNA Screen;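 further: robust z of the log signal after scaling to non-targeting control siRNA wells of the plate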
Conditions: RAW264.7 macrophages, IL-1a HTRF, actives lie on both sides, screened at 100 nM (by protocol), cells primed 5 h with Pam3CSK4 first
Among all 53,000 sequences or so, about 3,700 (7%) were called active.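 How the source made its calls: active means gene knockdowns whose robust z-score for IL-1 alpha signal is at least 2 or at most -2, so actives lie on both sides; inactive means the rest.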 Many of the other results were omitted from the sample, so actives are more common in it than they were.
Outcomes: 1.0 (active), 0.0 (inactive)

- biosequence: "GGCAUCCACACAGAACAAGTT against Zfp467"
  answer.label: 0.0
- biosequence: "GGUGUCUCUGAAGAUUGAATT against Cdc6"
  answer.label: 0.0
- biosequence: "GGGUAUUCCUUCCAACACCTT against Lrrc4"
  answer.label: 1.0
- biosequence: "GCUGGAUAUUUCUAAGUAUTT against A26c3"
  answer.label: 0.0
- biosequence: "GGGCAAAAGUACUUUGACUTT against Ensa"
  answer.label: 1.0
- biosequence: "GGAAAUUUGGAAAUUGCCUTT against Ntm"
  answer.label: 1.0
- biosequence: "GGACAUUGAGUCAAAAAUCTT against Slc19a2"
  answer.label: 0.0
- biosequence: "GCUGUGUGACCAGCUGUUGTT against Krtap9-1"
  answer.label: 0.0
- biosequence: "GGGCAAAAUAUAGCAAUGATT against Vmn1r233"
  answer.label: 1.0
- biosequence: "GGACUUAGACAUCCACCUCTT against Llcfc1"
  answer.label: 0.0
- biosequence: "GGUGCAAUCAGCUUUCCACTT against Olfr1336"
  answer.label: 1.0
- biosequence: "GGCAUCUUUUGAAACAAUATT against Ubxn8"
  answer.label: 0.0
